Test system: Zika virus NS2B-NS3 protease
Test: Primary screen GU AMC qHTS for Zika virus inhibitors (AID 1347154); note: nearly all actives have a fitted effect of over 70% in size
Conditions: Zika NS2B-NS3 unlinked protease, AMC fluorogenic substrate; series mostly up to 54.1 µM
Records with an inconclusive call do not appear. Activity calls are given as the source filed them. Calls come from the whole dose curve; as a rule, active = well fitted inhibition curve with a large enough effect; inconclusive = small, poorly fitted or top-dose-only effect; inactive = flat fitted curve, though single readings scatter.
Just give me one of these, please: True for active, False for inactive

INSERT INTO assay_data (smiles_text, class) VALUES
  ('O=C1N(c2ccccc2)c2ccccc2C1(Cc1ccncc1)Cc1ccncc1', 'False'),
  ('Cc1ccc(C(=O)Nc2ccc(S(=O)(=O)O)c3cc(S(=O)(=O)O)cc(S(=O)(=O)O)c23)cc1NC(=O)c1cccc(NC(=O)Nc2cccc(C(=O)Nc3cc(C(=O)Nc4ccc(S(=O)(=O)O)c5cc(S(=O)(=O)O)cc(S(=O)(=O)O)c45)ccc3C)c2)c1', 'True'),
  ('Nc1nnc(-c2cccc(Cl)c2Cl)c(N)n1', 'False');

// param item: COc1ccc2c(c1)c(CC(=O)O)c(C)n2C(=O)c1ccc(Cl)cc1 ; yields the recorded call
False

Dear all, I need the recorded test outcome for CN(C)CCC=C1c2ccccc2C=Cc2ccccc21 , thank you.
False

---

Assay: Drug repurposing screens with cells derived from glioblastoma tumor samples (AID 1345199); note: % is set by controls: 0 for no effect and ±100 for the full control effect; nearly all actives have a fitted effect of over 40% in size
Details: GBM patient neurospheres viability, ATP luminescence, 48 h; at 45.9 µM (top of the series); tumour line B
Results filed as inconclusive are left out. Activity calls are given as the source filed them. Calls follow the shape of the dose curve; as a rule, active = well fitted inhibition curve with a large enough effect; inconclusive = small, poorly fitted or top-dose-only effect; inactive = flat fitted curve, though single readings scatter.
Form field: activity, negative = cell killing (one value per entry).

Recorded results for 2 compounds are shown here.
INSERT INTO results (compound, result_type, val) VALUES
  ('C[C@H]1c2cccc(O)c2C(O)=C2C(=O)[C@]3(O)C(O)=C(C(N)=O)C(=O)[C@@H](N(C)C)[C@@H]3[C@@H](O)[C@@H]21', 'activity, negative = cell killing', '-22.1% (inactive)'),
  ('OCCN(CCO)c1nc(N2CCCCC2)c2nc(N(CCO)CCO)nc(N3CCCCC3)c2n1', 'activity, negative = cell killing', '-2.66% (inactive)');

# input compound: CC(C)(Oc1ccc(C2CC2(Cl)Cl)cc1)C(=O)O (configuration not stated) ; wanted: its activity, negative = cell killing
-9.51% (inactive)

Can you share its activity, negative = cell killing? I mean this compound: Cn1c(=O)c2c(ncn2C)n(C)c1=O
-15% (inactive)

Look up activity, negative = cell killing: NS(=O)(=O)c1cc2c(cc1Cl)NCNS2(=O)=O
-16.5% (inactive)

Tell me the measured activity, negative = cell killing of Nc1nnc(-c2cccc(Cl)c2Cl)c(N)n1 , please.
-10.9% (inactive)

Query: activity, negative = cell killing; subject: CS(=O)(=O)CCNCc1ccc(-c2ccc3ncnc(Nc4ccc(OCc5cccc(F)c5)c(Cl)c4)c3c2)o1
-6.77% (inactive)

# get_value(readout='activity, negative = cell killing', item= Cn1cnc2c1c(=O)[nH]c(=O)n2C )
0.295% (inactive)

activity, negative = cell killing lookup needed for CCN1CCCC1CNC(=O)c1cc(S(=O)(=O)CC)c(N)cc1OC (configuration not stated) , thanks.
6.58% (inactive)

Given O=c1[nH]cc(F)c(=O)[nH]1 , state its recorded activity, negative = cell killing.
-26.1% (inactive)

# get_value(readout='activity, negative = cell killing', item= Cc1cc(C(C)(C)C)c(O)c(C)c1CC1=NCCN1 )
-18.7% (inactive)

I'd like to know its activity, negative = cell killing. The compound in question is CC(C)NCC(O)c1ccc(O)c(O)c1 (configuration not stated)
-7.24% (inactive)

---

Tested on: OV90
Experiment: Primary qHTS to identify gynecologic anti-cancer compounds using libraries of approved drugs and bioactive compounds (AID 1345084); note: nearly all actives have a fitted effect of over 55% in size; note: potency is the fitted concentration of half-maximal effect
Conditions: Gynecologic cancer cell panel viability, ATPlite luminescence, 48 h; series mostly up to 57.5 µM
Records with an inconclusive call do not appear. Activity calls are given as the source filed them. Calls follow the shape of the dose curve; as a rule, active = well fitted cell-killing curve with a large enough effect; inconclusive = small, poorly fitted or top-dose-only effect, or effect the other way; inactive = flat fitted curve, though single readings scatter.
result_type: Potency

Some solved cases for reference:
INSERT INTO assay_data (smiles_text, result_type, val) VALUES
  ('O=C(c1ccc(F)cc1)C1CCN(CCn2c(=O)[nH]c3ccccc3c2=O)CC1', 'Potency', 'inactive'),
  ('CCCCc1oc2ccccc2c1C(=O)c1cc(I)c(OCCN(CC)CC)c(I)c1', 'Potency', 'inactive'),
  ('CC(=O)OCC(CCn1cnc2cnc(N)nc21)COC(C)=O', 'Potency', 'inactive'),
  ('COC(=O)Nc1nc2ccc(C(=O)c3cccs3)cc2[nH]1', 'Potency', '7.08 µM (active)'),
  ('CN1CCC(=C2c3ccccc3CC(=O)c3sccc32)CC1', 'Potency', 'inactive');

--- query ---
If you can, please state the reported Potency value of Cn1cnc2c1c(=O)[nH]c(=O)n2C .
inactive

---

Biological target: ATPase family AAA domain-containing protein 5 (Homo sapiens) (UniProt Q96QE3)
Sequence (Q96QE3 whole entry, looked up, the tested form may be a part): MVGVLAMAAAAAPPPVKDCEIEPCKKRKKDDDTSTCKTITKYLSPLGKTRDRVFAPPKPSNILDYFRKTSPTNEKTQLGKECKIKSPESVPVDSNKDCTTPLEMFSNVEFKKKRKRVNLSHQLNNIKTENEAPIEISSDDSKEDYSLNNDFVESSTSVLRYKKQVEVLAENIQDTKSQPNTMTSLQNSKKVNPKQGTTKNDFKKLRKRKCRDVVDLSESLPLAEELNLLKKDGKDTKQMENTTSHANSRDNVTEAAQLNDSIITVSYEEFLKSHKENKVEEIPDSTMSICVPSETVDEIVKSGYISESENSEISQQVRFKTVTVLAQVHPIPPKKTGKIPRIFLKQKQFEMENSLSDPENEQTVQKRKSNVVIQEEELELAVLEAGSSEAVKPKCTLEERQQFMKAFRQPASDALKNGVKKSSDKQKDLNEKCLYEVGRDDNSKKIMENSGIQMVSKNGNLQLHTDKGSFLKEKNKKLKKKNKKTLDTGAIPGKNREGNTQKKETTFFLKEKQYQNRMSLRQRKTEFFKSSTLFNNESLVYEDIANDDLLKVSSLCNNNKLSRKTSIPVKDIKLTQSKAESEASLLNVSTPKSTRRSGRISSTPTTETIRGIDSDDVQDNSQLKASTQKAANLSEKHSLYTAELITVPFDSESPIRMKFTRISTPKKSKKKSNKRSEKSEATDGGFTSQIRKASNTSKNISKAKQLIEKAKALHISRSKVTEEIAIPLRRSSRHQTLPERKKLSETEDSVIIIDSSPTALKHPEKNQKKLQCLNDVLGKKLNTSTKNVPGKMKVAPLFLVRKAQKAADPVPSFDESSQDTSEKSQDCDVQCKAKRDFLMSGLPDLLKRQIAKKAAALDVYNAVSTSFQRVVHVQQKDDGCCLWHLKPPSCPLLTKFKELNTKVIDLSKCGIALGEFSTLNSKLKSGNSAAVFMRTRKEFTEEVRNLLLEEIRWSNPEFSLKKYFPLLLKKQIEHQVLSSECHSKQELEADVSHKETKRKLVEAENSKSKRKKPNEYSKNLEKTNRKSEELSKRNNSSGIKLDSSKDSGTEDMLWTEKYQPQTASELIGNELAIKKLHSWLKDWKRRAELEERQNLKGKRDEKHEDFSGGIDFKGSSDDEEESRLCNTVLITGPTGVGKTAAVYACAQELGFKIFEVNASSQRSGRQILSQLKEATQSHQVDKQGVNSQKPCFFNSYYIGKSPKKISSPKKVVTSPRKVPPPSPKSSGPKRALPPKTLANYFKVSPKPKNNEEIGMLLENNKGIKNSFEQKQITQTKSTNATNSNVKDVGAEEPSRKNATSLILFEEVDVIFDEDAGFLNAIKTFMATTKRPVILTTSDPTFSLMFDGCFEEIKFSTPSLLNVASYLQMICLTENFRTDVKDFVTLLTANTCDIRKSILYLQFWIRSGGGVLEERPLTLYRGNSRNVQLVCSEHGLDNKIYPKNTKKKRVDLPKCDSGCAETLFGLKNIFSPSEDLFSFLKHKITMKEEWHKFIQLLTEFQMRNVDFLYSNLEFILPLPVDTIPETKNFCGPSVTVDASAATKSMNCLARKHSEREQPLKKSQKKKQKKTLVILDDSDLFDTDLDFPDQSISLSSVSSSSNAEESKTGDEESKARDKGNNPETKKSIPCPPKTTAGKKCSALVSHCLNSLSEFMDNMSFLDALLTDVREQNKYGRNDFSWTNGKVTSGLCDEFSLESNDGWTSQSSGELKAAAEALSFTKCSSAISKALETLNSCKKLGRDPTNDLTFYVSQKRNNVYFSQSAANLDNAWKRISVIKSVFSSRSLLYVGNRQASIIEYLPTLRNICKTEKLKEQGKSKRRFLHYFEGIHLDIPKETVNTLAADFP
Assay: Validation screen for small molecules that inhibit ELG1-dependent DNA repair in human embryonic kidney (HEK293T) cells expressing luciferase-tagged ELG1 (AID 493107);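 note: cells co-treated with the DNA-damaging agent 5-fluorouridine alongside compound; % is set by controls: 0 for no effect and ±100 for the full control effect; inhibitors lower the ELG1-luciferase luminescence signal; nearly all actives have a fitted effect of over 70% in size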
Details: HEK293T ELG1-luciferase level, luminescence, 5-fluorouridine co-treatment, 16 h; series mostly up to 46.1 µM
Records with an inconclusive call do not appear. The source made the active and inactive calls. Calls follow the shape of the dose curve; as a rule, active = well fitted inhibition curve with a large enough effect; inconclusive = small, poorly fitted or top-dose-only effect, or effect the other way; inactive = flat fitted curve, though single readings scatter.
Please reply with one of these outcomes: True = active, False = inactive

Example entries begin here.
INSERT INTO assay_data (molecule, target_entity, class) VALUES
  ('CCOC(=O)C(C)(C)Oc1ccc(Cl)cc1', 'ATPase family AAA domain-containing protein 5 (Homo sapiens) (UniProt Q96QE3)', 'False'),
  ('Clc1ccccc1C(c1ccccc1)(c1ccccc1)n1ccnc1', 'ATPase family AAA domain-containing protein 5 (Homo sapiens) (UniProt Q96QE3)', 'False');

Hi team, can someone confirm the assay call for Nc1ccn([C@H]2CC[C@@H](CO)O2)c(=O)n1 ?
False

Could you check what this test reported for CC(C)(Oc1ccc(C2CC2(Cl)Cl)cc1)C(=O)O (configuration not stated) ?
False

How was CS(=O)(=O)Nc1ccc([N+](=O)[O-])cc1Oc1ccccc1 classified in this test?
False

---

Quick reference for Z-AUC among some compounds
Assay: qHTS drug screen for cell cycle checkpoint inhibitors in PARPi-resistant BRCA-mutant ovarian cancer cell lines. (AID 1963452)
Conditions: PEO1/OlaR viability, CellTiter-Glo luminescence, 96 h; measured here: PEO1 parental Z-AUC; stronger effect = lower value
Format: numeric value only, no unit, no commentary.

INSERT INTO assay_data (compound, result_type, val) VALUES
  ('CCOC(=O)C(C)(C)Oc1ccc(Cl)cc1', 'Z-AUC', 0.586);

Entry under review: Cc1cnc(C(=O)NCCc2ccc(S(=O)(=O)NC(=O)NC3CCCCC3)cc2)cn1 . Reported Z-AUC?
0.686

Look up Z-AUC: Cn1c(=O)c2c(ncn2C)n(C)c1=O
1.03

Can you share its Z-AUC? I mean this compound: COc1ccc(C2CNC(=O)C2)cc1OC1CCCC1 (centres undefined)
0.813

---

Test: qHTS of pediatric cancer cell lines to identify multiple opportunities for drug repurposing: Primary screen for U-2 OS cells (AID 1347096);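 note: plate controls were DMSO wells for no effect and bortezomib positive control wells for full effect; nearly all actives have a fitted effect of over 50% in size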
Conditions: U-2 OS viability, CellTiter-Glo luminescence, 48 h; series mostly up to 46 µM
Inconclusive results are not listed. Active and inactive are the calls of the source. Calls follow the shape of the dose curve; as a rule, active = well fitted cell-killing curve with a large enough effect; inconclusive = small, poorly fitted or top-dose-only effect; inactive = flat fitted curve, though single readings scatter.
Please answer using one outcome listed in active, inactive

Known results for compounds:
INSERT INTO assay_data (compound, class) VALUES
  ('CN(C)C(=O)C(CCN1CCC(O)(c2ccc(Cl)cc2)CC1)(c1ccccc1)c1ccccc1', 'inactive'),
  ('CN1CCC(=C2c3ccccc3C=Cc3ccccc32)CC1', 'inactive'),
  ('CCc1cccc2c3c([nH]c12)C(CC)(CC(=O)O)OCC3 (stereo not given)', 'inactive');

We now examine a further compound.
Can you look up the reported call for Cc1cn([C@H]2C[C@H](N=[N+]=[N-])[C@@H](CO)O2)c(=O)[nH]c1=O for me?
inactive

---

System: MKL-2
Assay: qHTS assay to identify novel small-molecules to repurpose for Merkel cell carcinoma treatment (AID 1296009); note: % is set by controls: 0 for no effect and ±100 for the full control effect; nearly all actives have a fitted effect of over 60% in size
Settings: MCC and control cell lines, CellTiter-Glo viability, 72 h; series mostly up to 46 µM
Results filed as inconclusive are left out. Calls of active or inactive are those of the source. Calls come from the whole dose curve; as a rule, active = well fitted inhibition curve with a large enough effect; inconclusive = small, poorly fitted or top-dose-only effect; inactive = flat fitted curve, though single readings scatter.
Outcome (select one): active, inactive

INSERT INTO assay_data (molecule, target_entity, class) VALUES
  ('CC(=O)OCC(CCn1cnc2cnc(N)nc21)COC(C)=O', 'MKL-2', 'inactive');

Entry Nc1nnc(-c2cccc(Cl)c2Cl)c(N)n1 : call = ?
inactive

Which outcome was assigned to COc1cc2c(c(OC)c1OC)-c1ccc(OC)c(=O)cc1[C@@H](NC(C)=O)CC2 in this test?
inactive

---

Experiment: qHTS for differential inhibitors of proliferation of Plasmodium falciparum line 7G8 (AID 1815);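 note: parasite growth measured after three days of incubation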; note: potency is the fitted concentration of half-maximal effect
Conditions: Plasmodium falciparum 7G8 proliferation inhibition; series mostly up to 28.7 µM
Records with an inconclusive call do not appear. The source made the active and inactive calls. Calls come from the whole dose curve; as a rule, active = well fitted curve in the direction sought with a large enough effect; inconclusive = small, poorly fitted or top-dose-only effect, or another doubt; inactive = no such curve, though single readings can be large or run the other way.
result_type: Potency

Consider the following illustrative entries.
INSERT INTO results (smiles_text, result_type, val) VALUES
  ('OCCN(CCO)c1nc(N2CCCCC2)c2nc(N(CCO)CCO)nc(N3CCCCC3)c2n1', 'Potency', '2 µM (active)'),
  ('Fc1ccc([C@@H]2CCNC[C@H]2COc2ccc3c(c2)OCO3)cc1', 'Potency', '5.62 µM (active)'),
  ('CS(=O)(=O)Nc1ccc([N+](=O)[O-])cc1Oc1ccccc1', 'Potency', 'inactive'),
  ('COc1ccc2c(c1)c(CC(=O)O)c(C)n2C(=O)c1ccc(Cl)cc1', 'Potency', 'inactive'),
  ('NC(=O)NO', 'Potency', 'inactive');

I would be grateful if you could share the reported Potency for C[C@](N)(Cc1ccc(O)c(O)c1)C(=O)O .
inactive

Name the reported Potency value associated with the molecule CN(C)CCCN1c2ccccc2CCc2ccc(Cl)cc21
5.01 µM (active)

Query: Potency; subject: O=C1N(c2ccccc2)c2ccccc2C1(Cc1ccncc1)Cc1ccncc1
8.91 µM (active)

Name the reported Potency value associated with the molecule O=C1c2c(O)ccc(O)c2C(=O)c2c(NCCNCCO)ccc(NCCNCCO)c21
1.12 µM (active)

Report Potency for COc1cc2nc(N3CCN(C(=O)c4ccco4)CC3)nc(N)c2cc1OC please.
7.94 µM (active)

// query Potency value for entry NS(=O)(=O)c1cc2c(cc1Cl)NCNS2(=O)=O
inactive

What Potency value was documented for this molecule, Cn1c(=O)c2[nH]cnc2n(C)c1=O ?
inactive
